# Test system: MCF-7 cells
# ASSAY: Lactate dehydrogenase (LDH) assay for cytotoxicity
# Assay type: cell-based
# CONDITION_SUMMARY: Homo sapiens, MCF7; MCF-7, compound concentration 10 μM, 24 h; read-out: Lactate Dehydrogenase assay: % cell lysis (cell death)
I would appreciate it if you labelled entries Satisfied when cytotoxicity at 10 µM is 5% or higher, otherwise Not satisfied.

[
  {
    "MOLECULE": "COc1ccc(C2N(c3cc(OC)c(OC)c(OC)c3)C(=O)C2(Cl)Cl)cc1O (stereo not drawn) [Compound 11n]",
    "CLASS_ASSIGNMENT": "Satisfied"
  },
  {
    "MOLECULE": "COc1cc(N2C(=O)C(Cl)C2c2cccc3ccccc23)cc(OC)c1OC (stereo not drawn) [Compound 10j]",
    "CLASS_ASSIGNMENT": "Not satisfied"
  },
  {
    "MOLECULE": "COc1ccc(C2N(c3cc(OC)c(OC)c(OC)c3)C(=O)C2(Cl)Cl)cc1 (stereo not drawn) [Compound 11e]",
    "CLASS_ASSIGNMENT": "Satisfied"
  },
  {
    "MOLECULE": "COc1cc(N2C(=O)C(Cl)C2c2ccc(SC)cc2)cc(OC)c1OC (stereo not drawn) [Compound 10i]",
    "CLASS_ASSIGNMENT": "Not satisfied"
  },
  {
    "MOLECULE": "COc1ccc(C2C(Cl)C(=O)N2c2cc(OC)c(OC)c(OC)c2)cc1O (stereo not drawn) [Compound 10n]",
    "CLASS_ASSIGNMENT": "Satisfied"
  },
  {
    "MOLECULE": "COc1ccc(/C=C\\c2cc(OC)c(OC)c(OC)c2)cc1O",
    "CLASS_ASSIGNMENT": "Satisfied"
  },
  {
    "MOLECULE": "CCOc1ccc([C@H]2[C@H](Cl)C(=O)N2c2cc(OC)c(OC)c(OC)c2)cc1 (relative stereo) [Compound 10f]",
    "CLASS_ASSIGNMENT": "Not satisfied"
  },
  {
    "MOLECULE": "COc1ccc(C(=O)c2cc(OC)c(OC)c(OC)c2)cc1O [Compound 3a, phenstatin, reference compound]",
    "CLASS_ASSIGNMENT": "Satisfied"
  }
]
